The reported numbers originate from ChEMBL document CHEMBL1140358.

Observed log10 Ki for Cannabinoid receptor 2 (Homo sapiens, UniProt P34972), reported per entry below.
Scale: log10; quantity: Ki; unit before log: nM

Worked examples, 3 compounds total:
structure_as_smiles=CCCCCn1cc(C(=O)Cc2ccccc2)c2ccccc21 measurement=2.20
structure_as_smiles=CCCCCn1cc(C(=O)Cc2ccccc2Br)c2ccccc21 measurement=1.30
structure_as_smiles=CCCCCn1c(C)c(C(=O)Cc2ccc(Br)cc2)c2ccccc21 measurement=3.43

# query: log10 Ki | item CCCCCn1cc(C(=O)Cc2ccccc2F)c2ccccc21 | system: Cannabinoid receptor 2 (Homo sapiens, UniProt P34972)
1.59

# query: log10 Ki | item CCCCCn1c(C)c(C(=O)Cc2ccccc2OC)c2ccccc21 | system: Cannabinoid receptor 2 (Homo sapiens, UniProt P34972)
1.91

# query: log10 Ki | item CCCCCn1c(C)c(C(=O)Cc2ccccc2Br)c2ccccc21 | system: Cannabinoid receptor 2 (Homo sapiens, UniProt P34972)
1.46

# query: log10 Ki | item CCCCCn1cc(C(=O)Cc2ccc(Br)cc2)c2ccccc21 | system: Cannabinoid receptor 2 (Homo sapiens, UniProt P34972)
2.82

# query: log10 Ki | item CCCCCn1cc(C(=O)Cc2cccc(F)c2)c2ccccc21 | system: Cannabinoid receptor 2 (Homo sapiens, UniProt P34972)
1.96
